- Tested on: NCI/ADR-RES ovarian
- testDetails: NCI-60 one-dose screen, 48 h (100 = growth as untreated, 0 = no growth, -100 = all killed)
- recordedConditions: 10 µM unless noted
This is part of a sample that, as a whole, favours compounds with a hit. Of some 83,000 tested, about 20% had one in any assay.
# growth listing for each entry below
Give the number; % is assumed, so skip it.

Some solved cases for reference:
{"compound": "O[C@@H]1Cc2ccc3ccccc3c2N[C@H](c2ccoc2)C1", "endpoint": "growth", "recordedNumber": 103}
{"compound": "COC(=O)[C@]1(CCSC)N[C@H](c2cn(-c3ccccc3)nc2C)[C@@H]2C(=O)N(c3ccccc3)C(=O)[C@@H]21", "endpoint": "growth", "recordedNumber": 91}
{"compound": "C/C(=N/N=C(N)N)c1ccc(Cl)cc1", "endpoint": "growth", "recordedNumber": 86.5}
{"compound": "CO[C@H]1/C=C/O[C@@]2(C)Oc3c(C)c(O)c4c(O)c(c(/C=N/N5C(C)CN(Cc6ccccc6)CC5C)c(O)c4c3C2=O)NC(=O)/C(C)=C\\C=C\\[C@H](C)[C@H](O)[C@@H](C)[C@@H](O)[C@@H](C)[C@H](OC(C)=O)[C@@H]1C (some centres undefined)", "endpoint": "growth", "recordedNumber": -20.3}

Would you mind telling me what growth value was observed for `C=C(C)[C@H]1CC/C(C)=C/CC[C@]2(C)O[C@H]2CC/C(COC(C)=O)=C\C1=O` ? 102

Given `COc1cc2c(c(OC)c1OC)CCc1cnoc1-2` , state its recorded growth. 94.3

Returns the measured growth for the input compound. Input: `COc1ccc2c(c1)C(=O)c1c-2c(OCCCN(C)C)nc2cc(Br)ccc12` 65.6

Given the compound `O=C1NCN(c2ccccc2)C12CCN(CCCC(c1ccc(F)cc1)c1ccc(F)cc1)CC2` , what is its reported growth? 69.9

Any idea what its growth is? The compound is `COc1ccc(-n2nc3c(c2-c2ccc(OC)c(OC)c2)-c2oncc2CC3)cc1` 80.6

meta.source: PubChem BioAssay (NCI)
